meta.source: the supplement of paper PMC10567573

B1: KRT15 (parent)
chain: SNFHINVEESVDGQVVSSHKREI

variants of: B1; assay: protein stability index of a GFP-peptide fusion (GPS, HEK-293T) (PSI 1-6); higher = more stable; conditions: c terminus: native;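 note: lentivirally expressed fusions sorted by FACS into six bins by GFP to DsRed ratio, PSI derived from sequencing read proportions per bin multiplied by bin number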
Each entry falls in a class defined on protein stability index; the bands are bottom end (below 2), midrange (2 to below 3), top end (3 or more)

Query: Kindly state the category for this variant: S1Q
Reply: bottom end

Query: Determine which band this variant sits in: V15C
Reply: bottom end

Query: Classify this variant: S10Q
Reply: bottom end

Further cases:
Query: Which protein stability index category applies to S1W here?
Reply: midrange

Query: Form: Item = K20L ; Class = ?
Reply: bottom end

Query: Category of V11F , please.
Reply: top end

Query: Assign a category based on measured protein stability index for N2T and give only the class name.
Reply: bottom end

Query: Lab log: F3V — assign protein stability index category
Reply: midrange

Query: In plain terms, what class is H4S ?
Reply: midrange

Query: The entry to classify is S18Q ; which class holds it?
Reply: bottom end

Query: Textbook exercise: identify the category of the variant given here, H19P , according to its measured value.
Reply: top end

Query: Record E22I — which class?
Reply: top end

Query: Bin this entry: V11Q
Reply: midrange

Query: Tag the class for D12I
Reply: bottom end

Query: Band for G13T ?
Reply: midrange

Query: Assign a bin to V11K
Reply: bottom end

Query: Sort into band: E22N
Reply: top end

Query: Into which bin does this variant go? S18D
Reply: top end
